Molecular target: other, more extended hybrid molecules (P672_EVA1 hybrids)
Assay: BLI; P672(1_66):EVA1(47_94)
Listed next: entries and their corresponding Kd.

{"BINDER": "CCL18 (ligand) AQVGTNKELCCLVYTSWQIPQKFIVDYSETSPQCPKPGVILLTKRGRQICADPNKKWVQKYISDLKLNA", "UNIT_ANNOTATION": "nM", "Kd": 3.69}
{"BINDER": "CCL8 (human chemokine panel) (ligand) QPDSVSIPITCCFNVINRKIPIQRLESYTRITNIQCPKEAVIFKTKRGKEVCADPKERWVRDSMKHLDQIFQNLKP", "UNIT_ANNOTATION": "nM", "Kd": 277}
